The molecules listed here are annotated with their IC50.
# Target System: Nociceptin receptor (Homo sapiens)
# Sequence (P41146 whole entry): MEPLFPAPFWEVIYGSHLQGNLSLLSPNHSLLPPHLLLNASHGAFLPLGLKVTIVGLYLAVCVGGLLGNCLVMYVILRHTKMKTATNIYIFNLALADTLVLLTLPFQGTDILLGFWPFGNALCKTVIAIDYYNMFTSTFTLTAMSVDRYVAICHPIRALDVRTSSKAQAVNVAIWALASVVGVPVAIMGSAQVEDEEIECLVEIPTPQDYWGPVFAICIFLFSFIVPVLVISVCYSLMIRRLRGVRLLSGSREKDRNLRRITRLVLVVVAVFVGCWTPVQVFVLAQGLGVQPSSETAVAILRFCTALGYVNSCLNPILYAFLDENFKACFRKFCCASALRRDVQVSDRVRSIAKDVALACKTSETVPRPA
# Test Summary: Cell-Based NOP Assay: Formula (I) compounds were tested for antagonism of the nociceptin receptor (NOP) in a cell-based cAMP assay, using the LANCE cAMP Detection Kit, Perkin Elmer (Waltham, Mass.). This assay (LANCE cAMP) is a homogeneous, time-resolved fluorescence resonance energy transfer (TR-FRET) immunoassay designed to measure cAMP produced upon modulation of adenylyl cyclase activity by G protein-coupled receptors (GPCRs).ProtocolCells expressing human opioid NOP (ValiScreen cell line, cat #ES-230-C Perkin Elmer (Waltham, Mass.) were dispensed in simulation buffer (5 mM Hepes, 0.1% BSA, 0.5 mM IBMX in Hanks Buffered Saline Solution) at 2.5 μL cells per well (400 cells/well) into a 1536 white TC-treated assay plate. Compound was then added and plates were incubated for 15 minutes at room temperature. To each well was added 2.5 μL of a solution containing forskolin (3 μM final) and nociceptin peptide (390 pM final) diluted in stimulation buffer, and the plates were incubated for 30 minutes at room temperature. To each well was dispensed 5 μL of LANCE Ultra detection (1:300 dilution of anti-cAMP ULight with a 1:100 dilution of Eu-cAMP tracer diluted in cAMP Detection Buffer) reagent, and the plates were incubated for 1 hr at room temperature. The plate was then read on the ViewLux microplate reader (Perkin Elmer, Waltham, Mass.) using the LANCE 1536 protocol with 60 second exposure times and 50 μs delay. This protocol has an excitation wavelength of 340 nm (DUG11 filter) and emission wavelengths of 615 nm (Eu-Donor) and 665 nm (Alexa 647 cAMP antibody acceptor).Data AnalysisData was analyzed, normalized, and visualized using ACAS (John McNeil & Co.). Efficacy was calculated using activity of the vehicle (DMSO) as 0% efficacy and the activity of the corresponding reference positive control (SCH 221510, Tocris Bioscience (Pittsburgh, Pa.), Catalog number 3240) as 100% efficacy. Activity was calculated as the ratio of donor and acceptor emissions. All curve fits and IC50 determinations were performed using a non-linear regression model. The IC50 value was measured as the concentration at which half-maximal response was calculated.

Reference set (10 entries):
# Molecule, Result
records = [
    ("Fc1ccc(Cl)c(C2CCC(CCNC3CCOCC3)CC2)c1 (stereo unspecified)", "1 to 10 nM"),
    ("CC1(NCCC2CCC(c3ccc(F)cc3F)CC2)CCCC1 (stereo unspecified)", "100 to 1000 nM"),
    ("COCC1(NCCC2CCC(c3ccccc3Cl)CC2)CCOCC1 (stereo unspecified)", "10 to 100 nM"),
    ("Cc1nccnc1[C@H]1CC[C@@H](CCNC2CCOCC2)CC1", "100 to 1000 nM"),
    ("NC(=O)C1(NCCC2CCC(c3ccccc3Cl)CC2)CCCC1 (stereo unspecified)", "100 to 1000 nM"),
    ("CC1(NCC[C@H]2CC[C@H](c3ncc(F)cc3Cl)CC2)CCNC(=O)C1 (stereo partly specified)", "10 to 100 nM"),
    ("N#C[C@H]1CC[C@@H](NCC[C@H]2CC[C@@H](c3ccc(F)cc3C(F)(F)F)CC2)CC1", "< 1 nM"),
    ("CNC(=O)C1(NCC[C@H]2CC[C@H](c3c(F)cncc3Cl)CC2)CCOCC1", "10 to 100 nM"),
    ("Cc1cc(F)ccc1C1CCC(CCNC2CCCC2)CC1 (stereo unspecified)", "1 to 10 nM"),
    ("CNC(=O)C1(NCC[C@H]2CC[C@H](c3ccc(F)cc3F)CC2)CCOCC1", "1 to 10 nM"),
]

Here is another molecule to look at.
Which IC50 is reported for this molecule? O=C1C[C@H](NCC[C@H]2CC[C@H](c3ncc(F)cc3Cl)CC2)CCN1
1 to 10 nM
